Origin of the recorded values: paper PMC4838304

Form field: Secondary Structure Random coil (one value per entry).
Experiment: Circular dichroism, secondary structure content (CONTIN/LL)
Type: physicochemical
Conditions: water, 0.3mg in 1mL, 20°C, far-UV CD, CONTIN/LL
Experimental: We studied the structural properties of the peptides in vitro, using circular dichroism (see Materials and Methods). The far-UV CD spectra for NLS-CE, NLS-α and NLS-α-CE in water matched the characteristics of a random coil conformation. Circular dichroism spectra were recorded on a ChirascanTM CD Spectrometer (Applied Photophysics, UK) equipped with a peltier temperature controller. […] Ellipticity is reported as mean residue molar ellipticity and recorded in terms of molar elipticity [θ] […]
Ends that are not written are not given here.
I only need the number, in %, no unit after it.

# example entries with known answers
PKKKRKVWHWLQLKPGQPMY [NLS-α] | 67
KRRWRFVWMNPKKKRKVPPWPYLLWWHWLQLKPGQPMY [chimera] | 59
FRKWRRKPKKKRKVWWRKVKRRWHWLQLKPGQPMY [NLS-α-CE] | 64

Now take the following sequence into account.
Recorded Secondary Structure Random coil for WRFVWMNPKKKRKV [NLS-CE, optimized NLS fitting CPP rules] , please? 64
